# Target Or System: GST-PDZ3 fusion protein (PDZ3 domain of SAP97)
# Run Description: SPR; Biacore3000; anti-GST antibody immobilised, GST-PDZ3 captured (1200-1700 RU), GST on the reference cell subtracted; peptides as analytes at 62.5 nM to 12.8 µM, 30 µl/min; HBS (0.01 M HEPES, 0.15 M NaCl, 3 mM EDTA, 0.005% Surfactant P20); steady-state affinity fit, 1:1 model
Outcome Measure: Kd (µM)
Report the figure in µM without appending any unit label.

Indicate its recorded Kd; the binder in question is AMCGKKVLDTKNYKQTSV [peptide CHRK1 (C-terminal 18 amino acids of CRIPT)]
6.57

The measurements presented in this section are drawn from paper PMC5718245.
